- Tested on: HOP-92 NSCLC
- protocol_details: NCI tumour cell line growth inhibition, 48 h
As shown below, each of these molecules has a reported GI50 value.

Answered examples (5):
{"molecule": "CCN(Cc1nc2cc(C(F)(F)F)ccc2nc1-c1ccccc1)c1ccc(OC)c(OC)c1", "GI50": "15 µM"}
{"molecule": "Cc1ccc2[nH]c(C(=O)NN3C(=O)CSC34CCCC(C)C4)c(-c3ccccc3)c2c1 (centres undefined)", "GI50": "13.1 µM"}
{"molecule": "CC(C)=CCC/C(C)=C/CC/C(=C/COP(=O)(OCc1ccc([N+](=O)[O-])o1)N(C)CCCCCl)CC=C(C)C (centres undefined)", "GI50": "16.5 µM"}
{"molecule": "Cc1c2ncccc2nc2[nH]c3ccc(OCCN(C)C)cc3c12", "GI50": "1.99 µM"}
{"molecule": "O=C(CC1(O)C(=O)Nc2ccc(Br)cc21)c1ccc(C(=O)NCC2CCC3(CC2)OOC2(CCCCC2)OO3)cc1 (centres undefined)", "GI50": "1.9 µM"}

// below: GI50 requested for another molecule
Record COC(=O)c1c2c(c(C)[n+]([O-])c1C)C(=O)C(NCc1cccc(OC)c1)=CC2=O ; system HOP-92 NSCLC; GI50 = 2.75 µM
